Molecular target: Hmlalpha2 (UniProt P0CY09)
Sequence: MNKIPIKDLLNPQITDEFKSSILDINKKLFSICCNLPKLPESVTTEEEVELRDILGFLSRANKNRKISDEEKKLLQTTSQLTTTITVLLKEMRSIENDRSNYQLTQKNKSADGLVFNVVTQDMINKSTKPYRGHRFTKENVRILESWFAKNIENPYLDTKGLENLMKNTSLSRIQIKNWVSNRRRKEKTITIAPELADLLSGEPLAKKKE
Experiment: PBM E-score (8-mer binding enrichment) (E-score (-0.5 to 0.5)); higher = stronger / more preferred TF binding
Details: protein concentration: 200 nM; construct: GST-full length
Whole data set: some 33,000 sequences, median “E-score (-0.5 to 0.5)” near -0.04, cut for the highest 2% near 0.36. Many of the other results were omitted from the sample, so the highest values are more common in it than they were.
quantity: PBM E-score

sequence: ATCACACA
quantity: PBM E-score
observedValue: 0.228
//
sequence: CTTTACCA
quantity: PBM E-score
observedValue: 0.0599
//
sequence: AGATACAT
quantity: PBM E-score
observedValue: 0.388
//
sequence: ATGGCAAG
quantity: PBM E-score
observedValue: -0.153
//
sequence: CATGTACG
quantity: PBM E-score
observedValue: 0.372
//
sequence: CACGCGTC
quantity: PBM E-score
observedValue: 0.174
//
sequence: AAGTACAG
quantity: PBM E-score
observedValue: 0.0583
//
sequence: ATTTACCC
quantity: PBM E-score
observedValue: 0.0345
//
sequence: TAAACACA
quantity: PBM E-score
observedValue: 0.379
//
sequence: CTTTACAA
quantity: PBM E-score
observedValue: 0.38
//
sequence: GTAAAAAC
quantity: PBM E-score
observedValue: 0.385
//
sequence: CCTACACA
quantity: PBM E-score
observedValue: 0.266
//
sequence: AGATACAA
quantity: PBM E-score
observedValue: 0.276
//
sequence: AGTACTAA
quantity: PBM E-score
observedValue: 0.173
//
sequence: TGGCGTAA
quantity: PBM E-score
observedValue: 0.108
//
sequence: ACATACAA
quantity: PBM E-score
observedValue: 0.325
//
sequence: GCTACAAA
quantity: PBM E-score
observedValue: 0.0715
//
sequence: CAAACACG
quantity: PBM E-score
observedValue: 0.314
//
sequence: ACGCGTTA
quantity: PBM E-score
observedValue: 0.342
//
sequence: CCCTAACG
quantity: PBM E-score
observedValue: -0.0128
//
sequence: AAAACACT
quantity: PBM E-score
observedValue: 0.148
//
sequence: CTGCGAAA
quantity: PBM E-score
observedValue: 0.0491
//
sequence: ACCAAATA
quantity: PBM E-score
observedValue: 0.191
//
sequence: ATTTACAC
quantity: PBM E-score
observedValue: 0.479
//
sequence: TAAGTGGA
quantity: PBM E-score
observedValue: 0.0716
//
sequence: CCGCGTTA
quantity: PBM E-score
observedValue: 0.336
//
sequence: ATCACTGG
quantity: PBM E-score
observedValue: -0.0104
//
sequence: ATGTTTAC
quantity: PBM E-score
observedValue: 0.433
//
sequence: ACGTACAA
quantity: PBM E-score
observedValue: 0.273
//
sequence: ACATACAT
quantity: PBM E-score
observedValue: 0.421
//
sequence: CCATCGCC
quantity: PBM E-score
observedValue: -0.261
//
sequence: GTTTGACA
quantity: PBM E-score
observedValue: 0.303
//
sequence: AAAACACA
quantity: PBM E-score
observedValue: 0.333
//
sequence: CGGGAGCC
quantity: PBM E-score
observedValue: -0.33
//
sequence: ACCCTAAT
quantity: PBM E-score
observedValue: -0.101
//
sequence: CTAAACAC
quantity: PBM E-score
observedValue: 0.296
//
sequence: ACCACCGT
quantity: PBM E-score
observedValue: -0.0982
//
sequence: ACCAATTA
quantity: PBM E-score
observedValue: 0.195
//
sequence: GTTTACAA
quantity: PBM E-score
observedValue: 0.425
//
sequence: CTGTTTCC
quantity: PBM E-score
observedValue: -0.11
//
sequence: GCGCGTGA
quantity: PBM E-score
observedValue: 0.134
//
sequence: CACGCGTA
quantity: PBM E-score
observedValue: 0.277
//
sequence: GCTACACA
quantity: PBM E-score
observedValue: 0.323
//
sequence: CACCATGC
quantity: PBM E-score
observedValue: -0.0851
//
sequence: GCCTGCCA
quantity: PBM E-score
observedValue: -0.0217
//
sequence: TCTACACA
quantity: PBM E-score
observedValue: 0.445
//
sequence: AACGCGTG
quantity: PBM E-score
observedValue: 0.336
//
sequence: CTTTTCAC
quantity: PBM E-score
observedValue: 0.0898
//
sequence: AGTCTGCG
quantity: PBM E-score
observedValue: -0.0616
//
sequence: TCTGCGCA
quantity: PBM E-score
observedValue: -0.00074
//
sequence: GCCGTGAA
quantity: PBM E-score
observedValue: -0.197
//
sequence: GACGGTGA
quantity: PBM E-score
observedValue: -0.192
//
sequence: CAAACACA
quantity: PBM E-score
observedValue: 0.334
//
sequence: ACAAACAT
quantity: PBM E-score
observedValue: 0.305
//
sequence: ACATACAG
quantity: PBM E-score
observedValue: 0.336
//
sequence: ATTTACTC
quantity: PBM E-score
observedValue: 0.301
//
sequence: TACGCGCA
quantity: PBM E-score
observedValue: 0.252
//
sequence: ACTACACG
quantity: PBM E-score
observedValue: 0.454
//
sequence: TACGCGGA
quantity: PBM E-score
observedValue: 0.312
//
sequence: GTAAAAAA
quantity: PBM E-score
observedValue: 0.286
//
sequence: ACGGGGAA
quantity: PBM E-score
observedValue: -0.0619
//
sequence: CGATGATA
quantity: PBM E-score
observedValue: 0.0847
//
sequence: ATCACACC
quantity: PBM E-score
observedValue: -0.0635
//
sequence: GCATACAC
quantity: PBM E-score
observedValue: 0.256
//
sequence: ACCTATGC
quantity: PBM E-score
observedValue: -0.0222
//
sequence: ATCACACG
quantity: PBM E-score
observedValue: 0.371
//
sequence: AGCGGCTA
quantity: PBM E-score
observedValue: -0.0688
//
sequence: GCGCGTAC
quantity: PBM E-score
observedValue: 0.225
//
sequence: ACGCGTAT
quantity: PBM E-score
observedValue: 0.357
//
sequence: AAGAGCGA
quantity: PBM E-score
observedValue: -0.2
//
sequence: CCATACAC
quantity: PBM E-score
observedValue: 0.145
//
sequence: GTAAACAC
quantity: PBM E-score
observedValue: 0.416
//
sequence: GCCGTGCA
quantity: PBM E-score
observedValue: 0.0721
//
sequence: AACACACA
quantity: PBM E-score
observedValue: 0.391
//
sequence: GCGTCTCC
quantity: PBM E-score
observedValue: -0.033
//
sequence: CCTCTCAC
quantity: PBM E-score
observedValue: -0.127
//
sequence: CTTTACTA
quantity: PBM E-score
observedValue: 0.252
//
sequence: AAGTACAT
quantity: PBM E-score
observedValue: 0.383
//
sequence: ACGCGATA
quantity: PBM E-score
observedValue: 0.324
//
sequence: TACGCGTA
quantity: PBM E-score
observedValue: 0.409
//
sequence: ATGTTTGC
quantity: PBM E-score
observedValue: 0.166
//
sequence: AGATACAG
quantity: PBM E-score
observedValue: -0.0238
//
sequence: AAAACACG
quantity: PBM E-score
observedValue: 0.426

* * *

Target: Hmlalpha2 (UniProt P0CY09)
Sequence: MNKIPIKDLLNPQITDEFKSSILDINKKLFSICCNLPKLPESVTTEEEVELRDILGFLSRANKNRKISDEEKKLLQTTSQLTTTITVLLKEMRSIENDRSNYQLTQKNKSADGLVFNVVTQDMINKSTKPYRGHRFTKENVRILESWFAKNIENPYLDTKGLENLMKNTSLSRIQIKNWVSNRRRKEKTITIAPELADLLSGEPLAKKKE
Experiment: PBM E-score (8-mer binding enrichment) (E-score (-0.5 to 0.5)); higher = stronger / more preferred TF binding
Conditions: protein concentration: 200 nM; construct: GST-full length
Whole data set: some 33,000 sequences, median “E-score (-0.5 to 0.5)” near -0.04, cut for the highest 2% near 0.36. The sample as a whole holds a higher share of the highest values than the screen did.
1 means recorded PBM E-score is 0.1 or above; -1 means it is below 0.1.

sequence: CAACATAC
labelClass: 1
--
sequence: GTTAACAA
labelClass: 1
--
sequence: GTAGCGGA
labelClass: -1
--
sequence: CTTAACAA
labelClass: 1
--
sequence: ACTACAGA
labelClass: 1
--
sequence: GCATTAGA
labelClass: -1
--
sequence: AAACATCA
labelClass: 1
--
sequence: GTTAACTA
labelClass: 1
--
sequence: GTTAACCA
labelClass: 1
--
sequence: GCGGTGCA
labelClass: -1
--
sequence: CCACGGTA
labelClass: -1
--
sequence: ACACGGTG
labelClass: 1
--
sequence: TAACTACA
labelClass: 1
--
sequence: TCATTACA
labelClass: 1
--
sequence: ACTAACAA
labelClass: 1
--
sequence: ACACGCTC
labelClass: 1
--
sequence: TAACATCA
labelClass: 1
--
sequence: CGAAACTC
labelClass: -1
--
sequence: AATTCTGC
labelClass: -1
--
sequence: AGCCCTCC
labelClass: -1
--
sequence: AAACGCTC
labelClass: -1
--
sequence: CCACGGTC
labelClass: -1
--
sequence: GAACTACA
labelClass: 1
--
sequence: CTTAACAC
labelClass: 1
--
sequence: ACTTGTGA
labelClass: 1
--
sequence: CCACTACA
labelClass: 1
--
sequence: CCTACTCG
labelClass: -1
--
sequence: AGTCGGGA
labelClass: -1
--
sequence: ACACGGAT
labelClass: 1
--
sequence: TCAGGGCA
labelClass: -1
--
sequence: CAACATGC
labelClass: 1
--
sequence: ATGCGTTG
labelClass: 1
